Test system: Ramos cells
Test: Ramos proliferation assay (XTT)
Assay type: cell-based
Conditions: Homo sapiens, 72 hrs, 30 μM, read-out: Maximum % Inhibition at 30 μM
Description: Cell proliferation assay is a sensitive method for quantification of viable cells in cytotoxicity or proliferation assay. […] The resulting orange colour is spectrophotometrically measured at 450 nm. […] On termination day, 100 μl of XTT solution (1 mg/ml XTT supplemented with 25 μM PMS in Ham's F12 medium) was added to each well. […] The amount of formazon produced was determined by reading the absorbance of the plate using VICTOR X5 multilabel plate reader at wavelength of 450 nm. […]
I'd be grateful if you could share measured inhibition at 30 µM for these entries.
Give bare numbers, in %.

Here's what some known entries look like.
COMPOUND	UNIT_ANNOTATION	OBSERVED_MEASUREMENT
Cn1nnc2cc(-c3ccc(-c4ccccc4CN4CCCC4)cc3)cc(C(=O)O)c21	%	89
Cn1nc2cc(-c3ccc(-c4cccc(CN5CCOCC5)c4)cc3)cc(C(=O)O)c2n1	%	124
Cn1nc2cc(-c3ccc(-c4ccccc4)cc3)cc(C(=O)O)c2n1	%	107
Cc1ccc(C)n1-c1ccc(-c2cc(C(=O)O)c3nn(C)nc3c2)cc1	%	100

// input: 4 compounds below; output: inhibition at 30 µM for each
1. CN1CCN(Cc2ccccc2-c2ccc(C3=CC4N=NN(C)C4C(C(=O)O)=C3)cc2)CC1 (centres unmarked)
2. Cn1nnc2c(C(=O)O)cc(-c3ccc(-c4cccc(CN5CCCCC5)c4)cc3)cc21
3. Cc1ccc(C)n1-c1ccc(-c2cc(C(=O)O)c3c(c2)nnn3C)cc1
4. Cn1nc2cc(-c3c(F)c(F)c(-c4cccc(CN5CCOCC5)c4)c(F)c3F)cc(C(=O)O)c2n1

Outgoing:
1. 81
2. 129
3. 103
4. 96

# per-item lookup of inhibition at 30 µM; items listed below
1. Cn1nnc2cc(-c3ccc(-c4cccc(CN5CCOCC5)c4)cc3)cc(C(=O)O)c21
2. Cn1nnc2cc(-c3ccc(-c4ccccc4)cc3)cc(C(=O)O)c21
3. CC(=O)Nc1cccc(-c2ccc(-c3cc(C(=O)O)c4c(c3)nnn4C)cc2)c1
4. Cn1nnc2cc(-c3ccc(-c4ccccc4CN4CCOCC4)cc3)cc(C(=O)O)c21
5. Cn1nnc2cc(-c3c(F)c(F)c(-c4ccccc4)c(F)c3F)cc(C(=O)O)c21
6. Cc1ccccc1-c1ccc(-c2cc(C(=O)O)c3nn(C)nc3c2)cc1
7. Cn1nnc2cc(-c3ccc(-c4cccc(CN5CCCC5)c4)cc3)cc(C(=O)O)c21

Outgoing:
96
113
74
120
106
103
50

Take each entry in turn and give its inhibition at 30 µM.
1. Cn1nc2cc(-c3c(F)c(F)c(-c4ccccc4)c(F)c3F)cc(C(=O)O)c2n1
2. Cc1ccccc1-c1ccc(-c2cc(C(N)=O)c3c(c2)nnn3C)cc1

Outgoing:
1: 104; 2: 95

====

tested on: Ramos cells; test: Ramos proliferation assay (XTT); assay type: cell-based; conditions: Homo sapiens, 72 hrs, 30 μM, read-out: Maximum % Inhibition at 30 μM
Please respond with reported inhibition at 30 µM for every item in the list.
Answers are plain numbers, in %.

Use the examples below as a reference point.
MOL	QUANTITY_NAME	UNIT_ANNOTATION	OBSERVED_MEASUREMENT
CN1CCN(Cc2ccccc2-c2ccc(-c3cc(C(=O)O)c4nn(C)nc4c3)cc2)CC1	inhibition at 30 µM	%	56
Cc1ccccc1-c1ccc(-c2cc(C(=O)O)c3c(c2)nnn3C)cc1	inhibition at 30 µM	%	107
CN(C)Cc1cccc(-c2c(F)c(F)c(-c3cc(C(=O)O)c4c(c3)nnn4C)c(F)c2F)c1	inhibition at 30 µM	%	84
Cn1nc2cc(-c3ccc(-c4ccccc4CN4CCOCC4)cc3)cc(C(=O)O)c2n1	inhibition at 30 µM	%	133

From here, focus on the item given below.
// inhibition at 30 µM lookup, compound = "Cn1nc2cc(-c3c(F)c(F)c(-c4cccc(CN5CCCCC5)c4)c(F)c3F)cc(C(=O)O)c2n1" , result: 92
